# Tgt: HIV-1LAI envelope gp120 (Human immunodeficiency virus type 1 group M subtype B)
# Format: binding
# Details: Panel B, 15-mers and 18-mers of CD4; empty control 575
Could you label it T if measured COUNTS of radiolabeled gp120 retained is 1000 counts or higher, and F otherwise?

Evaluate `VEDQKEEVQLLVFGLTAN` : COUNTS of radiolabeled gp120 retained at minimum 1000 counts?
T

Then what about the sequence `SDTYICEVEDQKEEVQLL` ?
F

Then what about the sequence `QLLVFGLTANSDTHLLQG` ?
F

Then what about the sequence `LTANSDTHLLQGQSL` ?
F

Then what about the sequence `YICEVEDQKEEVQLLVFG` ?
T

Then what about the sequence `PLIIKNLKIEDSDTY` ?
F

Then what about the sequence `LLVFGLTANSDTHLL` ?
F

Then what about the sequence `FGLTANSDTHLLQGQSLT` ?
F

Then what about the sequence `ANSDTHLLQGQSLTL` ?
F

Then what about the sequence `KEEVQLLVFGLTANS` ?
T

Then what about the sequence `IEDSDTYICEVEDQKEEV` ?
T

Then what about the sequence `DTYICEVEDQKEEVQ` ?
T

Then what about the sequence `QKEEVQLLVFGLTANSDT` ?
T

Then what about the sequence `NLKIEDSDTYICEVE` ?
T

Then what about the sequence `EVEDQKEEVQLLVFGLTA` ?
T

Then what about the sequence `EVQLLVFGLTANSDT` ?
T

Then what about the sequence `LWDQGNFPLIIKNLKIED` ?
F

Then what about the sequence `FPLIIKNLKIEDSDT` ?
F

Then what about the sequence `DQGNFPLIIKNLKIEDSD` ?
F

Then what about the sequence `ANSDTHLLQGQSLTLTLE` ?
T

Then what about the sequence `EDSDTYICEVEDQKE` ?
F

Then what about the sequence `FPLIIKNLKIEDSDTYIC` ?
F

Then what about the sequence `EEVQLLVFGLTANSDTHL` ?
F

Then what about the sequence `EDQKEEVQLLVFGLT` ?
T

Then what about the sequence `EVEDQKEEVQLLVFG` ?
T

Then what about the sequence `QGNFPLIIKNLKIED` ?
F

----------
Would you kindly list Counts per 20′ Average-background for each of these sequences?
# Tgt: HIV-1LAI envelope gp120 (Human immunodeficiency virus type 1 group M subtype B, UniProt P03377)
# Format: binding
# Details: CCR5 18-mer scan; radiolabeled HIV-1LAI gp120; background subtracted
Express it in counts per 20′; write the number only.

Name the reported Counts per 20′ Average-background value associated with the sequence LGMTHCCINPIIYAFVGE [CCR5 segment 285-]
282

Then what about the sequence TDIYLLNLAISDLFFLLT [CCR5 segment 65-82] ?
38

Then what about the sequence NRLDQAMQVTETLGMTHC [CCR5 segment 273-] ?
10

Then what about the sequence `RNYLLVFFQKHIAKRFCK` ?
65

Then what about the sequence `TGLYFIGFFSGIFFIILL` ?
80

Then what about the sequence APYNIVLLLNTFQEFFGL [CCR5 segment 249-] ?
1962

Then what about the sequence GLNNCSSSNRLDQAMQVT [CCR5 segment 265-] ?
−31

Then what about the sequence `HFPYSQYQFWKNFQTLKI` ?
1008

Then what about the sequence LILINCKRLKSMTDIYLL [CCR5 segment 53-70] ?
2

Then what about the sequence IYDINYYTSEPCQKINVK [CCR5 segment 9-26] ?
228

Then what about the sequence TCSSHFPYSQYQFWKNFQ [CCR5 segment 177-] ?
367

Then what about the sequence AISDLFFLLTVPFWAHYA [CCR5 segment 73-90] ?
41

Then what about the sequence FWAHYAAAQWDFGNTMCQ [CCR5 segment 85-] ?
212

Origin of the recorded values: patent US20030068615A1
